Ref: patent US20250326826A1

Exercise: state measured pIC50 for each of the binders provided.
target: T1, Recombinant human bFGF (human, UniProt P09038 143-288, limits assumed); assay: competition ELISA, coated bFGF, competitor Fc-FGFR1
T1 construct: Bought (Sigma); also called hFGF-2; human basic fibroblast growth factor
T1 sequence (P09038 143-288 limits assumed): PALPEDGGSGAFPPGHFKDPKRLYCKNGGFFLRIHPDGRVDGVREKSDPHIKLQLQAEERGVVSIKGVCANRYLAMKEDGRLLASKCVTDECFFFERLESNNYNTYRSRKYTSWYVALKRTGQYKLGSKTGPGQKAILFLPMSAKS
Answers are plain numbers, as −log10 of the molar value.

* Nb-VF3\cmycH6 (bispecific antibody, Nb-VF3 without c-myc tracer peptide and histidine tag) QVQLVESGGGLVQPGGSLRLSCAASGNSAEDRLYNSYTWFRQAPGQGLEAVAAISSHFSAGLTYYADSVKGRFTISRDNSKNTLYLQMNSLRAEDTAVYYCEITSHASHNDAWSTPRTVWGQGTLVTVSSAHHSEDPSSKAPKAPAQVQLVESGGGLVQPGGSLRLSCAASGTEDGRLLTLGGSWFRQAPGQGLEAVAAIGAGDRGGATYYADSVKGRFTISRDNSKNTLYLQMNSLRAEDTAVYYCTALYERQPQLAATKVARKWGQGTLVTVSS | 6.86
* Nb-FF2\cmycH6 (VHH, Nb-FF2 without c-myc tracer peptide and histidine tag) QVQLVESGGGLVQPGGSLRLSCAASGTEDGRLLTLGGSWFRQAPGQGLEAVAAIGAGDRGGATYYADSVKGRFTISRDNSKNTLYLQMNSLRAEDTAVYYCTALYERQPQLAATKVARKWGQGTLVTVSSAHHSEDPSSKAPKAPAQVQLVESGGGLVQPGGSLRLSCAASGTEDGRLLTLGGSWFRQAPGQGLEAVAAIGAGDRGGATYYADSVKGRFTISRDNSKNTLYLQMNSLRAEDTAVYYCTALYERQPQLAATKVARKWGQGTLVTVSS | 7.27

Dear colleague, could you please provide pIC50 for the binders listed below?
1. Nb-FV1\cmycH6 (bispecific antibody, Nb-FV1 without c-myc tracer peptide and histidine tag) QVQLVESGGGLVQPGGSLRLSCAASGTEDGRLLTLGGSWFRQAPGQGLEAVAAIGAGDRGGATYYADSVKGRFTISRDNSKNTLYLQMNSLRAEDTAVYYCTALYERQPQLAATKVARKWGQGTLVTVSSAHHSEDPSSKAPKAPAQVQLVESGGGLVQPGGSLRLSCAASGNSAEDRLYNSYTWFRQAPGQGLEAVAAISSHFSAGLTYYADSVKGRFTISRDNSKNTLYLQMNSLRAEDTAVYYCEITSHASHNDAWSTPRTVWGQGTLVTVSS
2. Nb-F3\cmycH6 (VHH, Nb-F3 without c-myc tracer peptide and histidine tag) VHH: QVQLVESGGGLVQPGGSLRLSCAASGTEDGRLLTLGGSWFRQAPGQGLEAVAAIGAGDRGGATYYADSVKGRFTISRDNSKNTLYLQMNSLRAEDTAVYYCTALYERQPQLAATKVARKWGQGTLVTVSS

A)
1. 6.88
2. 6.87
